Target: estrogen receptor (Homo sapiens)
Construct: expressed in transfected cells; host or cells: HEK293 (Gibco 293-H), transient transfection with FuGENE HD
Sequence (P03372 whole entry, species assumed): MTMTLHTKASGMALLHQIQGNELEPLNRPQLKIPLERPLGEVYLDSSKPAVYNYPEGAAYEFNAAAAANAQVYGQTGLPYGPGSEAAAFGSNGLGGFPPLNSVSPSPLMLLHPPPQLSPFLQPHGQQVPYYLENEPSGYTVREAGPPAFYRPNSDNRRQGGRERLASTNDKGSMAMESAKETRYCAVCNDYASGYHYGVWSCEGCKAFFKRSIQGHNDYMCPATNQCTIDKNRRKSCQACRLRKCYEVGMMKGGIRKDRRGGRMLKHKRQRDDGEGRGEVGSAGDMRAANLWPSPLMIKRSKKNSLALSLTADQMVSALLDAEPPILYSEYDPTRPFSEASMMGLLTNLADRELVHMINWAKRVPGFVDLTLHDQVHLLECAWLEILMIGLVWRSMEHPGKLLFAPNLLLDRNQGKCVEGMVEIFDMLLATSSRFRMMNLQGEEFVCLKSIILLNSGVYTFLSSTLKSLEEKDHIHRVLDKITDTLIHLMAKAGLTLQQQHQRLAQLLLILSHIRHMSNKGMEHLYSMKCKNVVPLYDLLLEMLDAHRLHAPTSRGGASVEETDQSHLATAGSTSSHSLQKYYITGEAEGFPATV
Test: NanoBRET screening of ARCS (binding assay with washout) in transfected HEK293 cells
Conditions: HEK293 cells transfected with NanoLuc-target fusion, estrogen receptor
property name: Binding Potential (Percent inhibition)

| compound | target | Binding Potential (Percent inhibition) |
| --- | --- | --- |
| CC1Cc2c([nH]c3ccccc23)C(c2c(F)cc(N)cc2F)N1CC(C)(C)F (stereo not shown) | estrogen receptor (Homo sapiens) | +++ (+++ 80-90%) |
| C[C@@H]1Cc2c([nH]c3ccccc23)[C@@H](c2c(F)cc(OCCNC/C=C/C(=O)N(C)C)cc2F)N1CC(C)(F)CO (stereo partly shown) | estrogen receptor (Homo sapiens) | ++++ (++++ >90%) |
| C=CC(=O)NCCc1cc(F)c(C2c3[nH]c4ccccc4c3CC(C)N2CC(C)(C)F)c(F)c1 (stereo not shown) | estrogen receptor (Homo sapiens) | ++++ (++++ >90%) |
| CC1Cc2c([nH]c3cc(F)ccc23)C(c2c(F)cc(OCCNCC=CC(=O)N(C)C)cc2F)N1CC(C)(C)F (stereo not shown) | estrogen receptor (Homo sapiens) | ++++ (++++ >90%) |
| CC#CC(=O)NCCc1ccc(C2c3[nH]c4ccccc4c3CC(C)N2CC(C)(C)F)cn1 (stereo not shown) | estrogen receptor (Homo sapiens) | ++++ (++++ >90%) |
| CC1Cc2c([nH]c3cc(F)ccc23)C(c2c(F)cc(OCCNCC=CC(=O)N(C)C)cc2F)N1CC(C)(F)CO (stereo not shown) | estrogen receptor (Homo sapiens) | ++++ (++++ >90%) |

[Q] Request the reported Binding Potential (Percent inhibition) associated with C#CCCCNC(=O)C=CCNCCOc1cc(F)c(C2c3[nH]c4ccccc4c3CC(C)N2CC(C)(C)F)c(F)c1 (stereo not shown)
[A] +++ (+++ 80-90%)
